measure name: melting point

Some solved cases for reference:
[[record]]
record_smiles = "CC(C)NS(=O)(=O)c1ccc(-c2c(C#N)c3ccc(OC(F)(F)F)cc3n2CC2CC2)nc1"
measure_name = "melting point"
result = "203 to 205 °C"

[[record]]
record_smiles = "N#Cc1c(-c2ccc(S(=O)(=O)NC(CF)CF)cn2)n(C2CCC2)c2ccc(OC(F)(F)F)cc12"
measure_name = "melting point"
result = "179 to 182 °C"

[[record]]
record_smiles = "CCc1cc2c(cc1F)c(C(N)=O)c(-c1ccc(S(=O)(=O)N[C@@H](C)C(F)(F)F)cn1)n2-c1ncccn1"
measure_name = "melting point"
result = "235 to 236 °C"


Fill in melting point for each of the 4 compounds listed.
1. N#Cc1c(-c2ccc(S(=O)(=O)NC(CF)CF)cn2)n(CC2CC2)c2cc(Cl)c(F)cc12
2. N#Cc1c(-c2ncc(S(=O)(=O)NC(CF)CF)cn2)n(-c2ccc(F)cc2)c2cc(OC(F)F)ccc12
3. Cc1ccc2c(c1)c(C#N)c(-c1ncc(S(=O)(=O)N[C@@H](C)C3CC3)cn1)n2C(C)C
4. CC(C)n1c(-c2ccc(S(=O)(=O)N[C@@H](C)C(F)(F)F)cn2)c(C#N)c2ccc(OC(F)F)cc21

Result:
1: 202 to 204 °C; 2: 213 to 216 °C; 3: 171 to 174 °C; 4: 163 to 166 °C
